experiment: chemical genetic growth profiling, strain panel (AID 1159580);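 further: tested at 20 µM; growth read once vehicle control cultures reached saturation at 30 °C; lower values mean less growth of the strain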; details: S. cerevisiae deletion strains, growth OD, locus YLR133W, strain CKI1, active compounds read low
Out of some 5,500 compounds screened, about 2,000 (36%) were called active. Roughly 18% stayed inconclusive and do not appear here. The list shows a part of the results.
So basically: is normalized growth under 0.9? Then Yes. Not under? Then No.

# input Determine if `O=C(NCCc1ccncc1)c1ccc(Cl)c(Cl)c1` shows normalized growth strictly lower than 0.9.
# output No

# input Dear colleague, could you confirm whether normalized growth of `Brc1ccc2[nH]c3c(c2c1)CCC3` falls below 0.9? Thanks.
# output Yes

# input Please let me know if `N#Cc1c2ccccc2nc2ccccc12` shows normalized growth below 0.9.
# output Yes

# input State whether 0.9 exceeds normalized growth recorded for `Cc1nc(-c2ccccn2)nc(N(C)Cc2ccccc2)c1Cl` .
# output No

# input Take the compound `CCCc1nc(-c2ccccn2)[nH]c(=O)c1CC1CC1` and say whether its normalized growth is less than 0.9.
# output No

# input Hello, is normalized growth of the following compound strictly smaller than 0.9? O=C(NCC(c1ccccc1)c1c[nH]c2ccccc12)c1ccc(C(F)(F)F)cc1 (configuration not stated)
# output No

# input Take the compound `O=[N+]([O-])c1cnc(Sc2nnc(SCc3cccc(C(F)(F)F)c3)s2)s1` and say whether its normalized growth is less than 0.9.
# output Yes

# input Check if normalized growth falls below 0.9 for `Fc1ccc(NC(=S)N2CCCN(Cc3ccc(Cl)cc3Cl)CC2)cc1` .
# output No

# input Does this compound meet the criterion normalized growth < 0.9? `Cc1ccc(C)c(CSc2nc(C3CCCCC3)c(C#N)c(=O)[nH]2)c1`
# output No

# input Is the reported normalized growth for `Cc1oc(C(C)(C)C)cc1-c1cc(N)n(-c2ccc(I)cc2)n1` strictly below 0.9?
# output No
